Tested on: HLA-A*24
Assay Notes: MHC binding assay: UV-ligand exchange with beta2m ELISA (peptide exchange yield)
Parameters: species or system human
Test Parameters: Table 11, binding to HLA-A*24, UV-ligand exchange
Outcome Measure: Peptide exchange (MHC class I binding score, peptide exchange yield)

Answered cases to consult:
Substance	Experimental Result
368 (AYFVAMHLF; listed as Homo sapiens) [compound 368]	++++ (>75% = ++++)
239 (IYTFSNVTF; listed as Homo sapiens) [compound 239]	++++ (>75% = ++++)
245 (VLPLHFLPF; listed as Homo sapiens) [compound 245]	++++ (>75% = ++++)
210 (EAYSYPPATI; listed as Homo sapiens) [compound 210]	+++ (>50 = +++)
191 (MSYSCGLPSL; listed as Homo sapiens) [compound 191]	+++ (>50 = +++)

QUERY: Report Peptide exchange (MHC class I binding score, peptide exchange yield) for 303 (RFLDRGWGF; listed as Homo sapiens) [compound 303] please.
RESULT: ++++ (>75% = ++++)

QUERY: Same question for 28 (FWFDSREISF; listed as Homo sapiens) [compound 28] please.
RESULT: ++++ (>75% = ++++)
